Test system: Escherichia coli TOP10
Experiment Notes: shrunken log2 fold change of peptide-encoding DNA abundance (4.5 h post-induction vs induction); higher = less antimicrobial activity (less host growth inhibition)
Experimental Conditions: time post-induction: 4.5 h; library: site-saturation at positions 5, 18, 19, 20
Kindly state shrunken log2 fold change for each of the entries shown.
Give bare numbers.

Worked examples, 3 sequences total:
RRIRMRPPRLPRPRPRPNKGPRP ... 0.0758
RRIRIRPPRLPRPRPRPARKPRP ... 0.462
RRIRFRPPRLPRPRPRPWEKPRP ... -0.0348

Look at each sequence and report its shrunken log2 fold change.
1. RRIRHRPPRLPRPRPRPKAVPRP
2. RRIRFRPPRLPRPRPRPSWLPRP
3. RRIRERPPRLPRPRPRPQTKPRP

A:
[-0.00256, 0.156, 0.0765]

Look at each sequence and report its shrunken log2 fold change.
1. RRIRRRPPRLPRPRPRPRNIPRP
2. RRIRHRPPRLPRPRPRPTDMPRP
3. RRIRFRPPRLPRPRPRPDWIPRP
4. RRIRFRPPRLPRPRPRPTMGPRP
5. RRIRMRPPRLPRPRPRPYCWPRP

A:
1. -0.0349
2. 0.151
3. -0.114
4. 0.0497
5. -0.134

Look at each sequence and report its shrunken log2 fold change.
1. RRIRHRPPRLPRPRPRPWIQPRP
2. RRIRDRPPRLPRPRPRPCRVPRP
3. RRIRWRPPRLPRPRPRPRFMPRP

A:
1: -0.0803; 2: 0.0479; 3: -0.17

---

System: Escherichia coli TOP10
Experiment Notes: shrunken log2 fold change of peptide-encoding DNA abundance (4.5 h post-induction vs induction); higher = less antimicrobial activity (less host growth inhibition)
Experimental Conditions: time post-induction: 4.5 h; library: site-saturation at positions 5, 18, 19, 20
Readout Type: shrunken log2 fold change
Give bare numbers.

RRIRHRPPRLPRPRPRPSVWPRP ... -0.151

Look at each sequence and report its shrunken log2 fold change.
1. RRIRGRPPRLPRPRPRPHENPRP
2. RRIRCRPPRLPRPRPRPAVSPRP
3. RRIRPRPPRLPRPRPRPQCWPRP
4. RRIRTRPPRLPRPRPRPKCYPRP
5. RRIRKRPPRLPRPRPRPIIPPRP

A:
[0.446, -0.345, 0.0194, -0.0601, 0.152]

Look at each sequence and report its shrunken log2 fold change.
1. RRIRPRPPRLPRPRPRPPVPPRP
2. RRIRARPPRLPRPRPRPPDAPRP

A:
[0.564, 1.25]

---

Test system: Escherichia coli TOP10;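 note: peptides expressed intracellularly from a pBAD plasmid library in pooled LB shake-flask culture, induced with 0.3% L-arabinose, DNA abundance read by NGS, three biological replicates, DESeq2 with apeglm shrinkage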
Experiment Notes: shrunken log2 fold change of peptide-encoding DNA abundance (4.5 h post-induction vs induction); higher = less antimicrobial activity (less host growth inhibition)
Experimental Conditions: time post-induction: 4.5 h; library: site-saturation at positions 5, 18, 19, 20
Kindly state shrunken log2 fold change for each of the entries shown.
Numbers only.

Worked examples, 3 sequences total:
RRIRERPPRLPRPRPRPSMSPRP ... -0.0748
RRIRQRPPRLPRPRPRPKQQPRP ... -0.141
RRIRGRPPRLPRPRPRPVQYPRP ... 0.118

Look at each sequence and report its shrunken log2 fold change.
1. RRIRPRPPRLPRPRPRPVHFPRP
2. RRIRNRPPRLPRPRPRPINYPRP
3. RRIRRRPPRLPRPRPRPLAFPRP
4. RRIRVRPPRLPRPRPRPWKPPRP

A:
-0.342
-0.262
0.448
0.0596
